TARGET: T1, chromodomain of CDYL2 (human, UniProt Q8N8U2 1-75)
T1 sequence (looked up): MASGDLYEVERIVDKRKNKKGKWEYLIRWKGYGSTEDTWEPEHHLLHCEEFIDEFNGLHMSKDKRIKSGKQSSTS
ASSAY: AlphaScreen or HTRF
Square brackets hold non-standard residues; d marks the D form. * marks the point of attachment. Lys(Me3) = C[N+](C)(C)CCCC[C@H](N)C(=O)O; Bz = O=C(c1ccccc1)*
QUANTITY MEASURED: IC50
Field: value (include unit after the number)

Which IC50 is listed for Bz-FAL[Lys(Me3)]S-OMe [compound 5] ?
570 nM

Just for reference, paper PMC5063714 is where these values come from.
